- assay_procedure: Pharmacokinetic study in mice (IV and PO), plasma
- Format: in vivo, mouse
- test_parameters: female, C57BL/6; mouse plasma, IV, 1 mg/kg
property: AUC(0-t) (ng·h/mL)
The figure you give is taken to be in ng·h/mL; do not add the unit.

// recorded AUC(0-t) for CN(C)C(=O)COc1cnc(N[C@H]2CC[C@@H](Oc3nc(N4CCOCC4)cc4ncccc34)CC2)nc1 : 3700

---

- Tested on: pDNA-PK induction in HCT116 tumour spheroids
- assay_procedure: Multicellular tumour spheroid + radiation, pDNA-PK (ser2056) inhibition, immunohistochemical endpoint, HCT116
- Type: cell-based
- test_parameters: Homo sapiens, HCT-116; 20 Gy, 2 hours following radiation, 20% O2; Example 9 Study 2; read-out: Spheroid Cell line: HCT116 Immunohistochemical endpoint pDNA-PK inhibition EC50
property: EC50

Example molecules with recorded EC50:
INSERT INTO assay_data (molecule, test_value) VALUES
  ('O=C(COc1cnc(N[C@H]2CC[C@@H](Oc3nc(N4CCOCC4)cc4ncccc34)CC2)nc1)N1CCCC1', '1000 to 10000 nM'),
  ('CN(C)S(=O)(=O)Nc1cnc2cc(N3CCOCC3)nc(O[C@H]3CC[C@@H](Nc4ncccn4)CC3)c2c1', '1000 to 10000 nM'),
  ('O=C(COc1cnc(N[C@H]2CC[C@@H](Oc3nc(N4CCOCC4)cc4ncccc34)CC2)nc1)N1CCOCC1', '10 to 500 nM'),
  ('O=C(COc1cnc(N[C@H]2CC[C@@H](Oc3nc(N4CCOCC4)cc4ncccc34)CC2)nc1)N1CC(F)C1', '1000 to 10000 nM'),
  ('CONC(=O)c1cnc2cc(N3CCOCC3)nc(O[C@H]3CC[C@@H](n4ccnc4)CC3)c2c1', '1000 to 10000 nM');

Observed EC50, pDNA-PK induction in HCT116 tumour spheroids, NC(=O)COc1cnc(N[C@H]2CC[C@@H](Oc3nc(N4CCOCC4)cc4ncccc34)CC2)nc1 : 10 to 500 nM

The origin of these recorded values is patent US20240239790A1.
